target: T1, cynomolgus CD8 (captured on the Octet biosensor) (cynomolgus); assay: Octet (BLI); cynomolgus CD8 captured, dipped into multiple concentrations of the one-arm mAb
T1 construct: Construct not described; also called cyno CD8; cyno CD8a
T1 sequence (P30433 other isoform, or with tags, fused parts or gaps): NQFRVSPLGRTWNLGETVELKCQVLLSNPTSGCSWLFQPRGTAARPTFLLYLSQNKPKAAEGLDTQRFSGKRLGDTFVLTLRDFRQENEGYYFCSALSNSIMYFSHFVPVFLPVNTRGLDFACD
koff reference
Could you give me the number in s⁻¹? Just the number is fine.

Use the examples below as a reference point.
XENP26241 (antibody, V domains shown, also called OKT8_H2.164_L1.103 one-arm mAb) VH: QVQLVQSGAEVKKPGASVKVSCKASGFNIKDTYIHWVRQAPGKGLEWMGRIDPDNDETLYASKFQGRVTMTADTSINTAYMELSRLRSDDTAVYYCGRGYGKYVFDHWGQGTTVTVSS VL: AIKMTQSPSSLSASVGDRVTITCRTSRSISKYLAWYQEKPGKTNKLLIYSGSTLQSGIPSRFSGSGSGTDFTLTISSLQPEDFATYYCQQHNENPLTFGAGTKLEIK : 0.00589
XENP26235 (antibody, V domains shown, also called OKT8_H2.158_L1.103 one-arm mAb) VH: QVQLVQSGAEVKKPGASVKVSCKASGFNIKDTYIHWVRQAPGKGLEWMGRIDPDNGETLYASKFQGRVTMTADTSINTAYMELSRLRSDDTAVYYCGRGYGYYYFDHWGQGTTVTVSS VL: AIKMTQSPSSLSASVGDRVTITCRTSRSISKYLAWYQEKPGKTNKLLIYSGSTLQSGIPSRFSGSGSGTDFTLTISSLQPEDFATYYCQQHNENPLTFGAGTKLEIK : 0.00477

Now, please, on to the next binder.
Which koff reading was recorded for the binder XENP26236 (antibody, V domains shown, also called OKT8_H2.159_L1.103 one-arm mAb) VH: QVQLVQSGAEVKKPGASVKVSCKASGFNIKDTYIHWVRQAPGKGLEWMGRIDPDNGETLYASKFQGRVTMTADTSINTAYMELSRLRSDDTAVYYCGRGWGYYVFDHWGQGTTVTVSS VL: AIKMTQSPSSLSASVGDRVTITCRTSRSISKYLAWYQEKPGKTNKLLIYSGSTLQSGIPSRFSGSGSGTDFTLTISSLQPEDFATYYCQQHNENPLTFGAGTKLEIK ? 0.00672
